Where do these numbers come from? They come from patent US20150353495A1.

test system: JAK1/3 signaling to STAT6 in Ramos B cells; test: IL4 stimulation of JAK1/3 signaling to STAT6 in Ramos B cells (pSTAT6 Y641, FACS); assay type: cell-based; conditions: Homo sapiens, 1.0 uM compound, read-out: IL-4/STAT6 in Ramos Percent Inhibition at 1.0 uM
Decide by inhibition at 1 µM: equal to or exceeding 40% means Fulfilled, less means Not fulfilled.

Sample answers from the record:
{"Compound": "COc1ccc(Nc2cc(NCc3c(F)cccc3F)c(C(N)=O)cn2)cc1 [Example 82]", "Answer label": "Not fulfilled"}
{"Compound": "CC(=O)N1CCN(c2ccc(Nc3cc(NC4CC4)c(C(N)=O)cn3)cc2)CC1 [Example 2]", "Answer label": "Fulfilled"}

Determine whether this compound has inhibition at 1 µM no lower than 40%: NC(=O)c1cnc(Nc2ccc(N3CCOCC3)cc2)cc1NCc1ccccc1 [Example 250] Not fulfilled

Please check the record NC(=O)c1cnc(Nc2ccc(C(=O)N3CCOCC3)cc2)cc1NCc1ccccc1 [Example 40] and state if its inhibition at 1 µM is at or above 40%. Fulfilled

Please indicate if the recorded inhibition at 1 µM for CNC(=O)[C@@H]1CCCN(c2ccc(Nc3cc(N[C@H](C)c4ccccc4)c(C(N)=O)cn3)cc2)C1 [Example 8] meets or exceeds 40%. Not fulfilled

Does inhibition at 1 µM meet or surpass 40% for CC(=O)N1CCN(c2ccc(Nc3cc(NCc4ccccc4)c(C(N)=O)cn3)cc2C)CC1 [Example 5] ? Fulfilled

API: above_or_equal(metric=inhibition at 1 µM, cutoff=40%) for item CN1CCC(c2ccc(Nc3cc(NCc4ccccc4F)c(C(N)=O)cn3)cc2)CC1 [Example 107] Fulfilled

Evaluate NC(=O)c1cnc(Nc2ccc(N3CCOCC3)cc2)cc1NCc1ccccc1F [Example 73] : inhibition at 1 µM at minimum 40%? Fulfilled

Reported inhibition at 1 µM at or above 40%? CC(=O)N1CCN(c2ccc(Nc3cc(NCc4ccccc4)c(C(N)=O)cn3)cc2)CC1 [Example 3] Fulfilled

hey, is inhibition at 1 µM for this one >= 40%? CC(=O)N1CCC(c2ccc(Nc3cc(NCc4ccccc4F)c(C(N)=O)cn3)cc2)CC1 [Example 115] Fulfilled

====

target: JAK1 (Homo sapiens, UniProt P23458); construct: 5 μl of catalytic domain recombinant Kinase enzyme+Tyr peptide substrate (Invitrogen, CA); test: Z'-LYTE kinase assay JAK1
Sequence (P23458 875-1153 limits assumed): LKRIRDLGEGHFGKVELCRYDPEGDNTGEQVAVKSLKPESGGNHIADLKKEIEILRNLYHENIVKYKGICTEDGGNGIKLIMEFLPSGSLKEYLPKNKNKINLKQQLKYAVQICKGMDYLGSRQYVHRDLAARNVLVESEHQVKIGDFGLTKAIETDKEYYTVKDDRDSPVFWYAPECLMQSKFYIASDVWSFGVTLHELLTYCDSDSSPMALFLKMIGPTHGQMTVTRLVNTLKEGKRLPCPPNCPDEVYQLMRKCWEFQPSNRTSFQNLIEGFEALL
pIC50: −log10 of the molar value.
Each entry below carries its reported pIC50.

# example entries with known answers
{"Given smiles": "NC(=O)c1cnc(Nc2ccc(C(=O)N3CCC3)cc2)cc1NCc1cc(F)ccc1F", "pIC50": "7.00 to 8.00"}
{"Given smiles": "CN(C)C(=O)c1cccc(Nc2cc(NCC3CCCC3)c(C(N)=O)cn2)c1", "pIC50": "6.00 to 7.00"}
{"Given smiles": "COc1ccc(Nc2cc(NCC3CCN(C(C)=O)CC3)c(C(N)=O)cn2)cc1", "pIC50": "< 6.00"}
{"Given smiles": "CN(C)C(=O)COc1ccc(Nc2cc(NC3(c4ccccc4)CC3)c(C(N)=O)cn2)cc1", "pIC50": "< 6.00"}
{"Given smiles": "Cn1cc(CNc2cc(Nc3ccc(C4CCOCC4)cc3)ncc2C(N)=O)cn1", "pIC50": "< 6.00"}

Reported pIC50 (JAK1 (Homo sapiens, UniProt P23458)) for entry `CC(=O)NCc1ccc(Nc2cc(NCc3cccc4ccsc34)c(C(N)=O)cn2)cc1` is 7.00 to 8.00

With JAK1 (Homo sapiens, UniProt P23458) as the test system, `CCC(=O)N1CCC[C@H](CNc2cc(Nc3ccc(OC)cc3)ncc2C(N)=O)C1` showed pIC50 of < 6.00

# value of pIC50, JAK1 (Homo sapiens, UniProt P23458), item `NC(=O)c1cnc(Nc2ccc(F)c(C(=O)N3CCC3)c2)cc1NCc1ccccc1` = 6.00 to 7.00

The reported pIC50 value, JAK1 (Homo sapiens, UniProt P23458), for `CN(C)C(=O)c1ccc(Nc2cc(NCc3ccccc3)c(C(N)=O)cn2)cc1C(F)(F)F` reads < 6.00

JAK1 (Homo sapiens, UniProt P23458) pIC50 of `CN(C)C(=O)c1ccc(Nc2cc(NCc3ccccc3)c(C(=O)N(C)C)cn2)cc1` is < 6.00

The measured pIC50 that `CC(=O)N1CCC[C@H](CNc2cc(Nc3ccc(NS(=O)(=O)N(C)C)cc3)ncc2C(N)=O)C1` showed for JAK1 (Homo sapiens, UniProt P23458) is 6.00 to 7.00
